Measured normalized RNA/DNA level with ligand (log10), listed per entry.
B1: library; a variant is named by its letters at N, in order (parent)
chain: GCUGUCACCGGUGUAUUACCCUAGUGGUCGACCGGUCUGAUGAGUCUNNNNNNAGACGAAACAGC

- Variants of: B1
- experimentDescription: normalized RNA/DNA level with ligand (relative to sTRSVctl = 100) (log10 (% of sTRSVctl)); ligand: hypoxanthine (xanthine aptamer); higher = less ribozyme self-cleavage, higher mRNA level
- condition: ligand concentration (+) RNA-Seq: 5 mM, HEK293T, reporter: mCherry (pCS4076), ligand present: yes
Please reply with the number alone, leaving off any unit.

Would you please look over these solved cases?
UCCCGA = 1.96
CGUUGA = 1.96
AGCAGG = 1.83
CCUUAU = 1.95
CGCAUG = 1.93

query: # input variant: CCCAAA ; wanted: its normalized RNA/DNA level with ligand (log10)
result: 1.92

query: # input variant: UAGACG ; wanted: its normalized RNA/DNA level with ligand (log10)
result: 1.87

query: # input variant: CCGUAG ; wanted: its normalized RNA/DNA level with ligand (log10)
result: 1.82

query: # input variant: AGGGCC ; wanted: its normalized RNA/DNA level with ligand (log10)
result: 1.98

query: # input variant: UCCUUU ; wanted: its normalized RNA/DNA level with ligand (log10)
result: 2.01

query: # input variant: GGCGUC ; wanted: its normalized RNA/DNA level with ligand (log10)
result: 1.94

query: # input variant: CUCCGG ; wanted: its normalized RNA/DNA level with ligand (log10)
result: 1.93

query: # input variant: CGUAAA ; wanted: its normalized RNA/DNA level with ligand (log10)
result: 1.86

query: # input variant: CCUAGA ; wanted: its normalized RNA/DNA level with ligand (log10)
result: 1.96

query: # input variant: UGUGCG ; wanted: its normalized RNA/DNA level with ligand (log10)
result: 1.93

query: # input variant: CGUGAG ; wanted: its normalized RNA/DNA level with ligand (log10)
result: 1.85

query: # input variant: UUCUUG ; wanted: its normalized RNA/DNA level with ligand (log10)
result: 1.92

query: # input variant: UUCAUG ; wanted: its normalized RNA/DNA level with ligand (log10)
result: 1.95

query: # input variant: CCAUUU ; wanted: its normalized RNA/DNA level with ligand (log10)
result: 1.91

query: # input variant: CUAAAG ; wanted: its normalized RNA/DNA level with ligand (log10)
result: 1.92

query: # input variant: AGUAAC ; wanted: its normalized RNA/DNA level with ligand (log10)
result: 1.92

Source: the supplement of paper PMC6757056
